Test: AUC (0 to t) in cynomolgus monkey at 1 mg/kg, po
Format: ADME, organism-based, Macaca fascicularis
Set-up: dose 1 mg/kg, route oral
Conditions: plasma
outcome.measure: AUC(0-t) (ng·h/mL)
// units = ng·h/mL; emit number, no label

**Query** Look at this compound and give its reported AUC(0-t). CNC[C@H](CC1CCCCC1)NC(=O)N1CCC[C@@H]([C@@H](OCCNC(=O)OC)c2cccc(Cl)c2)C1
**Result** 130

----------
Catalogue of bioavailability readings, one per entry.
Experiment: Oral bioavailability in rat at 10 mg/kg
Type: ADME, organism-based
Conditions: in vivo
// units = %; emit number, no label

**Query** Look at this compound and give its reported bioavailability. COC(=O)NCCO[C@@H](c1cccc(Cl)c1)[C@@H]1CCCN(C(=O)N[C@H](CN)CC2CCCCC2)C1
**Result** 7.2

----------
Target: Renin (Homo sapiens)
Sequence (P00797 whole entry): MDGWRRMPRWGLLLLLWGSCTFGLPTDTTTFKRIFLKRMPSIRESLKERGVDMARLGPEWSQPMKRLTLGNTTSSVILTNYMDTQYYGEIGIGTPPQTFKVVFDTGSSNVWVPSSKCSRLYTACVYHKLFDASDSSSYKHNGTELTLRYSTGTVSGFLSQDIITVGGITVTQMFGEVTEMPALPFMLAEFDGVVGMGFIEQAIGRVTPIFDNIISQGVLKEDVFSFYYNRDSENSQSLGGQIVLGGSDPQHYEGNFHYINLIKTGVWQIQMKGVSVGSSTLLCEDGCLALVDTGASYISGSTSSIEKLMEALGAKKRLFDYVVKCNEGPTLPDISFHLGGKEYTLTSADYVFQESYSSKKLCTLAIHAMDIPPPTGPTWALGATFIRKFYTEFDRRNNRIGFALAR
Assay: Inhibition of human recombinant renin assessed as decrease in plasma renin activity by competitive radioimmunoassay in presence of human plasma
Catalogue of log10 of IC50 readings, one per entry.
Note the log scale: values are log10 of IC50 expressed in nM.

Consider the following illustrative entries.
CCNC[C@H](CC1CCCCC1)NC(=O)N1CCC[C@@H]([C@@H](OCCNC(=O)OC)c2cccc(F)c2)C1 : 1.26
CNC[C@H](CC1CCCCC1)NC(=O)N1CCC[C@@H]([C@@H](OCCNC(=O)OC)c2cccc(F)c2F)C1 : 0.79
CCC(=O)NCCC[C@@](O)(c1cccc(Cl)c1)[C@@H]1CCCN(C(=O)N[C@H](CNC)CC2CCCCC2)C1 : 1.32
CNC[C@H](CC1CCCCC1)NC(=O)N1CCC[C@@H]([C@@H](OCCNC(=O)OC)c2cccc(Cl)c2F)C1 : 0.53
CNC[C@H](CC1CCCCC1)NC(=O)N1CCC[C@@H]([C@@H](OCCNC(=O)OC)c2cccc(F)c2)C1 : 0.26

**Query** Look at this compound and give its reported log10 of IC50. CCNC[C@H](CC1CCCCC1)NC(=O)N1CCC[C@@H]([C@@H](OCCNC(=O)OC)c2cccc(Cl)c2)C1
**Result** 0.89

**Query** Look at this compound and give its reported log10 of IC50. CNC[C@H](CC1CCCCC1)NC(=O)N1CCC[C@@H]([C@@](O)(CCCNC(=O)NC)c2cccc(Cl)c2)C1
**Result** 2.15

----------
Assay: Oral bioavailability in rat at 10 mg/kg
Assay type: ADME, organism-based
Settings: in vivo
outcome.measure: bioavailability (%)
// units = %; emit number, no label

Consider the following illustrative entries.
CNC[C@H](CC1CCCCC1)NC(=O)N1CCC[C@@H]([C@@](O)(CCCNC(=O)OC)c2cccc(Cl)c2)C1 : 0.3
CNC[C@H](CC1CCCCC1)NC(=O)N1CCC[C@@H]([C@@H](OCCNC(=O)OC)c2cccc(F)c2)C1 : 22.1

Field: next compound
**Query** Look at this compound and give its reported bioavailability. CNC[C@H](CC1CCCCC1)NC(=O)N1CCC[C@@H]([C@@H](OCCNC(=O)OC)c2cccc(Cl)c2)C1
**Result** 9.4
